Give IC50 for every item shown.
# MEASURED TARGET: Glutamate receptor ionotropic, AMPA (Rattus norvegicus, UniProt P19490+P19491+P19492+P19493)
# ASSAY REMARKS: Inhibition of Ca 2+ Influx in cultured rat cerebellar granule cells, mediated by ionotropic glutamate receptor AMPA
# Assay type: functional
Form entry: value (nM) — number only.

(Q) Identify measured IC50 associated with CN(Cc1nc2ccc(F)cc2c(=O)n1-c1ccccc1Cl)c1ccccc1F
(A) 2000

(Q) Find the measured IC50 of O=c1c2cc(F)ccc2nc(CNc2ccccc2F)n1-c1ccccc1Cl and report it.
(A) 13

(Q) Determine its reported IC50: Cc1cccc(NCc2nc3ccc(F)cc3c(=O)n2-c2ccccc2Cl)c1
(A) 213

(Q) Name the recorded IC50 of the item N#Cc1ccccc1NCc1nc2ccc(F)cc2c(=O)n1-c1ccccc1Cl in your answer.
(A) 42

(Q) Indicate its recorded IC50; the compound in question is O=c1c2cc(F)ccc2nc(CC(O)c2ccccc2F)n1-c1ccccc1Cl (stereo in doubt; 3a)
(A) 240

---

# MEASURED TARGET: Glutamate receptor ionotropic, AMPA (Rattus norvegicus, UniProt P19490+P19491+P19492+P19493)
# ASSAY REMARKS: Inhibition of Ca 2+ Influx in cultured rat cerebellar granule cells, mediated by ionotropic glutamate receptor AMPA
MEASUREMENT KIND: IC50

(Q) Provide one value: measured IC50 of O=c1c2cc(F)ccc2nc(/C(O)=C/c2ccccc2F)n1-c1ccccc1Cl
(A) > 30 µM

(Q) Please give measured IC50 of the following entry: O=c1c2cc(F)ccc2nc(COc2ccccc2F)n1-c1ccccc1Cl
(A) > 10 µM

(Q) Please list IC50 recorded for the compound O=c1c2cc(F)ccc2nc(CNCc2ccccc2F)n1-c1ccccc1Cl
(A) > 0.3 µM

(Q) Name the recorded IC50 of the compound listed here: CC(=O)N(Cc1nc2ccc(F)cc2c(=O)n1-c1ccccc1Cl)c1ccccc1F
(A) > 3 µM

(Q) Answer with reported IC50 of O=c1c2cc(F)ccc2nc(CC(O)c2ccccc2F)n1-c1ccccc1Cl (stereo in doubt; 3b)
(A) > 3 µM
